- target.desc: human CD38 (Homo sapiens, UniProt P28907)
- Sequence (P28907 43-300 limits assumed): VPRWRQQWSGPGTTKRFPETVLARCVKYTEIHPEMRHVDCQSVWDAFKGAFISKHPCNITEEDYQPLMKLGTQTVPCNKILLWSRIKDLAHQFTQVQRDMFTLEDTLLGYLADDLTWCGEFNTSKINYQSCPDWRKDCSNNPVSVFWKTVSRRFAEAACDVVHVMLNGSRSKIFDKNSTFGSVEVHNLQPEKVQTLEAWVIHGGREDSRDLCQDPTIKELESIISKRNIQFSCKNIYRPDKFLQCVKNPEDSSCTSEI
- assay.comment: Competitive and slow-onset inhibition of CD38-catalyzed conversion of NGD+ to cGDPR (295 nm absorbance)
- Format: biochemical
- Parameters: The soluble domain of human CD38 catalyzes the conversion of NAD^+ to cyclic-ADP-ribose
- measurement.parameters: 19° C.; calculated from the kinetic parameters; read-out: Ki(total) = (koff/kon)*Ki, effective dissociation constant
measurement.label: Ki (nM)
Just the number in nM, nothing appended.

* NC(=O)c1ccc[n+]([C@H]2C[C@H](O)[C@@H](CO)O2)c1 [inhibitor 1, β-nicotinamide-2′-deoxyriboside] | 4.5

Shifting focus to the compound that follows.
Quick check: Ki of Cc1cc(C(N)=O)c[n+]([C@H]2C[C@H](O)[C@@H](CO)O2)c1 [inhibitor 2, β-5-methyl-nicotinamide-2′-deoxyriboside] ?
12.5
